c-Src (Homo sapiens (Human), UniProt P12931) IC50 data
Sequence (P12931 whole entry, looked up, species assumed): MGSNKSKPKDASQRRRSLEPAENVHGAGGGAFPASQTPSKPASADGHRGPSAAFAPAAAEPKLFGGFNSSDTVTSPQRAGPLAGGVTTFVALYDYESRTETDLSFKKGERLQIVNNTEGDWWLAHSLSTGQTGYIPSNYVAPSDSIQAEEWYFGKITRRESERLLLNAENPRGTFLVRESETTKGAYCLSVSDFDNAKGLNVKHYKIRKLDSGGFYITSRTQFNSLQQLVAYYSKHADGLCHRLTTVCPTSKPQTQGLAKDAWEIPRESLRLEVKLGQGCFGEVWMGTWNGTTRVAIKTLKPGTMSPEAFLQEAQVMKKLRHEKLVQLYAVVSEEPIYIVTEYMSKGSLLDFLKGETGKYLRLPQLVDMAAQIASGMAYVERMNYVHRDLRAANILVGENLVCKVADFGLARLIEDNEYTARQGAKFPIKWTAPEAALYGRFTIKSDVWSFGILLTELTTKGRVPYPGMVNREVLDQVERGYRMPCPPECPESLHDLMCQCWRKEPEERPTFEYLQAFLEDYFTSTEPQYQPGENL
Reported endpoint: IC50

item_smiles=COc1ccccc1CCNc1nc(Nc2ccc(N3CCN(C)CC3)cc2OC)ncc1Cl measured="8.25 µM"
item_smiles=COc1cc(N2CCN(C)CC2)ccc1Nc1ncc(Cl)c(NCCc2c(F)cccc2Cl)n1 measured="11.5 µM"

====

ACK1 (Homo sapiens (Human), UniProt Q07912) IC50 data
Sequence (Q07912 whole entry): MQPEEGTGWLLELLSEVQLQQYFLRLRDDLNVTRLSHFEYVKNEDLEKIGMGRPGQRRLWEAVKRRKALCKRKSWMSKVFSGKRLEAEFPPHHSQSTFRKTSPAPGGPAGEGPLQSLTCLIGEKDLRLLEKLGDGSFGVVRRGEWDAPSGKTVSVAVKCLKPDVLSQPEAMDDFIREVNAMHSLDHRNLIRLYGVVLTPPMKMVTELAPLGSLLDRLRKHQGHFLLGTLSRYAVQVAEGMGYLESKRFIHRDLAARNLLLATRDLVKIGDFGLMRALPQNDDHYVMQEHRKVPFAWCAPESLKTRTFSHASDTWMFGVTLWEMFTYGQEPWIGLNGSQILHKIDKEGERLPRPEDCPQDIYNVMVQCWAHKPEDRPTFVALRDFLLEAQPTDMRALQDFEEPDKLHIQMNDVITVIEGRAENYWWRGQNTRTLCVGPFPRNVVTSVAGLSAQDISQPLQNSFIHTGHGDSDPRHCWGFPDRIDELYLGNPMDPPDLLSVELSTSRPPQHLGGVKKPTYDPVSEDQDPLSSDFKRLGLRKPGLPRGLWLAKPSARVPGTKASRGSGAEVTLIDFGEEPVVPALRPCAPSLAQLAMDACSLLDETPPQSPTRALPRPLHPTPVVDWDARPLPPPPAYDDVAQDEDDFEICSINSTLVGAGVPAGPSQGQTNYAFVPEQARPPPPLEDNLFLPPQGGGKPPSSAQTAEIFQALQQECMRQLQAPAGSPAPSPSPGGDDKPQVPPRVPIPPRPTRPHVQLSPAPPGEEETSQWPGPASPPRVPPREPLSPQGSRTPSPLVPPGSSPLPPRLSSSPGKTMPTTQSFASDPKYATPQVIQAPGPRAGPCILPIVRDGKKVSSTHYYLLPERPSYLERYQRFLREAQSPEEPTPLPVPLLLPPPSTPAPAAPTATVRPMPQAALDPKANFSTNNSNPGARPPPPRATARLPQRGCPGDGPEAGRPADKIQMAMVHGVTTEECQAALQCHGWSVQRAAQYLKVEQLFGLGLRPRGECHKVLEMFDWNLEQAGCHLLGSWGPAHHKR
Reported endpoint: IC50

compound="COc1cc(N2CCN(C)CC2)ccc1Nc1ncc(Cl)c(NCCc2c(F)cccc2Cl)n1 [Example 20]" measured="27 nM"
compound="COc1ccccc1CCNc1nc(Nc2ccc(N3CCN(C)CC3)cc2OC)ncc1Cl [Example 21]" measured="24 nM"

====

- Tested system: ACK1 (Homo sapiens (Human), UniProt Q07912)
- Protocol details: ACK1 ELISA
- Format: biochemical
- Conditions used: read-out: ACK1 ELISA % inhibition at 10 μM
Where a name gives a salt, the structure may show the parent alone.
Reported endpoint: inhibition at 10 µM (%)

molecule=CN1CCN(c2ccc(Nc3ncc(Cl)c(NCCc4ccc(Cl)cc4Cl)n3)cc2)CC1 tested_system="ACK1 (Homo sapiens (Human), UniProt Q07912)" reported_endpoint="inhibition at 10 µM" unit_string=% measured=36.5
molecule=CN1CCN(c2ccc(Nc3ncc(Cl)c(NCCc4c(F)cccc4Cl)n3)cc2)CC1 tested_system="ACK1 (Homo sapiens (Human), UniProt Q07912)" reported_endpoint="inhibition at 10 µM" unit_string=% measured=93
molecule="CN1CCN(c2ccc(Nc3ncc(Cl)c(NCC4CCCCO4)n3)cc2)CC1 (stereo not drawn) [Example 4, hydrochloride]" tested_system="ACK1 (Homo sapiens (Human), UniProt Q07912)" reported_endpoint="inhibition at 10 µM" unit_string=% measured=97
molecule=Cc1ccccc1CCNc1nc(Nc2ccc(N3CCN(C)CC3)cc2)ncc1Cl tested_system="ACK1 (Homo sapiens (Human), UniProt Q07912)" reported_endpoint="inhibition at 10 µM" unit_string=% measured=91
molecule=CN1CCN(c2ccc(Nc3ncc(Cl)c(NCCc4c(Cl)cccc4Cl)n3)cc2)CC1 tested_system="ACK1 (Homo sapiens (Human), UniProt Q07912)" reported_endpoint="inhibition at 10 µM" unit_string=% measured=97
molecule=CN1CCN(c2ccc(Nc3ncc(Cl)c(NCCc4ccccc4F)n3)cc2)CC1 tested_system="ACK1 (Homo sapiens (Human), UniProt Q07912)" reported_endpoint="inhibition at 10 µM" unit_string=% measured=91
molecule="CN1CCN(c2ccc(Nc3ncc(Cl)c(NCC4CCCN4C)n3)cc2)CC1 (stereo not drawn) [Example 6, tri TFA salt]" tested_system="ACK1 (Homo sapiens (Human), UniProt Q07912)" reported_endpoint="inhibition at 10 µM" unit_string=% measured=35.6
molecule=CN1CCN(c2ccc(Nc3ncc(Cl)c(NCCc4ccccc4)n3)cc2)CC1 tested_system="ACK1 (Homo sapiens (Human), UniProt Q07912)" reported_endpoint="inhibition at 10 µM" unit_string=% measured=91.9
molecule=COc1ccccc1CCNc1nc(Nc2ccc(N3CCN(C)CC3)cc2)ncc1Cl tested_system="ACK1 (Homo sapiens (Human), UniProt Q07912)" reported_endpoint="inhibition at 10 µM" unit_string=% measured=98
molecule=CN1CCN(c2ccc(Nc3ncc(Cl)c(NCCCc4ccccc4)n3)cc2)CC1 tested_system="ACK1 (Homo sapiens (Human), UniProt Q07912)" reported_endpoint="inhibition at 10 µM" unit_string=% measured=85.8
molecule=CN1CCN(c2ccc(Nc3ncc(Cl)c(NCc4ccco4)n3)cc2)CC1 tested_system="ACK1 (Homo sapiens (Human), UniProt Q07912)" reported_endpoint="inhibition at 10 µM" unit_string=% measured=96
molecule=CN1CCN(c2ccc(Nc3ncc(Cl)c(NCCc4ccccn4)n3)cc2)CC1 tested_system="ACK1 (Homo sapiens (Human), UniProt Q07912)" reported_endpoint="inhibition at 10 µM" unit_string=% measured=91.9
molecule=Cc1ccc(CNc2nc(Nc3ccc(N4CCN(C)CC4)cc3)ncc2Cl)o1 tested_system="ACK1 (Homo sapiens (Human), UniProt Q07912)" reported_endpoint="inhibition at 10 µM" unit_string=% measured=90.9
molecule=CN1CCC(NC(=O)c2ccc(Nc3ncc(Cl)c(NC[C@H]4CCCO4)n3)cc2F)CC1 tested_system="ACK1 (Homo sapiens (Human), UniProt Q07912)" reported_endpoint="inhibition at 10 µM" unit_string=% measured=86.9
molecule=CN1CCN(c2ccc(Nc3ncc(Cl)c(NCC4CCCC4)n3)cc2)CC1 tested_system="ACK1 (Homo sapiens (Human), UniProt Q07912)" reported_endpoint="inhibition at 10 µM" unit_string=% measured=97
molecule=CN1CCN(c2ccc(Nc3ncc(Cl)c(NCCc4ccccc4Cl)n3)cc2)CC1 tested_system="ACK1 (Homo sapiens (Human), UniProt Q07912)" reported_endpoint="inhibition at 10 µM" unit_string=% measured=91
molecule="CN1CCN(c2ccc(Nc3ncc(Cl)c(NCC4CCCN4)n3)cc2)CC1 (stereo not drawn) [Example 2, tri-TFA salt]" tested_system="ACK1 (Homo sapiens (Human), UniProt Q07912)" reported_endpoint="inhibition at 10 µM" unit_string=% measured=18.3
molecule=CN1CCN(C(=O)Cc2ccc(Nc3ncc(Cl)c(NC[C@H]4CCCO4)n3)cc2)CC1 tested_system="ACK1 (Homo sapiens (Human), UniProt Q07912)" reported_endpoint="inhibition at 10 µM" unit_string=% measured=86.8

Reference for the values: patent US10336734B2
